Target: Man(a1-3)[Man(a1-6)]Man(b1-4)GlcNAc(b1-4)[Fuc(a1-6)]GlcNAc
Assay: glycan array binding signal (z-score within array); higher = stronger binding
Conditions: glycan notation: IUPAC condensed, linker removed
This excerpt belongs to a sample that is enriched for the strongest signals.
measurement.label: glycan array binding signal (z-score)

QUERY: Endpoint output: glycan array binding signal (z-score) of MAL-II (Maackia amurensis), P93248 (protein) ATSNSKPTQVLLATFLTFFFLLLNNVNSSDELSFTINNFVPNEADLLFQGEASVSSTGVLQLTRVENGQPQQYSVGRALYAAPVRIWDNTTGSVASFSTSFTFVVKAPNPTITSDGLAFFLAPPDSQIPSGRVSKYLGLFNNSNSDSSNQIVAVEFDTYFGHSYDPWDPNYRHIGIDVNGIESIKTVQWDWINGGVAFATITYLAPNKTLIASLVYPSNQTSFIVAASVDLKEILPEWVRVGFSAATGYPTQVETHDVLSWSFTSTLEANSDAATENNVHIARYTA . Value?
RESULT: -0.337

Origin of values: the supplement of paper PMC8728848
